Test system: A431
OUTCOME_MEASURE: IC50 (µM)
Numbers only, in µM.

Q: Identify measured IC50 associated with CCCn1ccc2nc(C)nc(N(C)c3ccc(OC)cc3)c21.Cl [3•HCl]
Ans: 0.107

---

I'd be grateful if you could share measured pIC50 for these entries.
TARGET_SYSTEM: EGFR (Homo sapiens, UniProt P00533)
Sequence (P00533 25-1210, species assumed): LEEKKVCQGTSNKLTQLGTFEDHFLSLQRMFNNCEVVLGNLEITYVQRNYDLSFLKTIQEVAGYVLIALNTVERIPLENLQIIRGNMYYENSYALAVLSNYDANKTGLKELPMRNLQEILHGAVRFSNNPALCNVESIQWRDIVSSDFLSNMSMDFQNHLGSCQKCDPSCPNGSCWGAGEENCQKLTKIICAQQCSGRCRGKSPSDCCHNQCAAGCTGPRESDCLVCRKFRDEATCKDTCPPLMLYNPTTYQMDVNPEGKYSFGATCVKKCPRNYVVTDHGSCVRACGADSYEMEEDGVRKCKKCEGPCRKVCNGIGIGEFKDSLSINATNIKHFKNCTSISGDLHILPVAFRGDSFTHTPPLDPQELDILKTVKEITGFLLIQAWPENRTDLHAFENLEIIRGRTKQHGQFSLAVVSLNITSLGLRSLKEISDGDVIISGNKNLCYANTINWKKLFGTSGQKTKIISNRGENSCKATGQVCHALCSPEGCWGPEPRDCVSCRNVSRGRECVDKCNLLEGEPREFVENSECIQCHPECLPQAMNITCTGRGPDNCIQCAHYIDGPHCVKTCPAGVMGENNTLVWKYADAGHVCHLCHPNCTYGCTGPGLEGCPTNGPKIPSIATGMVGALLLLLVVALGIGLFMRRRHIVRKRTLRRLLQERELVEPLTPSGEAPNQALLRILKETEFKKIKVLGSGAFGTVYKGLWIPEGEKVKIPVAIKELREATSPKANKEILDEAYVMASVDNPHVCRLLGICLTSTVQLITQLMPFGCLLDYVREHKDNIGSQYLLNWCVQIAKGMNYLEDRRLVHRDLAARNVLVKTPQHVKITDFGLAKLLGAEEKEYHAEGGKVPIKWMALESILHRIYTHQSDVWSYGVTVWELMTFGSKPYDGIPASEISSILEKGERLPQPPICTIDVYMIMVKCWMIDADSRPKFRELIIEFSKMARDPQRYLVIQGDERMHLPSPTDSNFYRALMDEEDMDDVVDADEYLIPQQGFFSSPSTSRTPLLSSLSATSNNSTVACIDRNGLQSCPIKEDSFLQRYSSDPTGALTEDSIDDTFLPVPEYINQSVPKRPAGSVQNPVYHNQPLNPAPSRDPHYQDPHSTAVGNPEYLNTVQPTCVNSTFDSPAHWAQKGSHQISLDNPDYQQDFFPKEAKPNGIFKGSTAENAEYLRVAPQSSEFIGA
PROTOCOL_TEXT: Kinase inhibition, whole-cell assay, EGFR
Assay type: cell-based
APPLIED_CONDITIONS: Table 1; IC50 ± SD; read-out: Kinase inhibition IC50 [whole-cell assays] EGFR
Counter-ions that a name gives are not always drawn.
Answers are plain numbers, as −log10 of the molar value.

Example entries begin here.
{"columns": ["COMPOUND", "OUTCOME_MEASURE", "DATA_VALUE"],
 "data": [
  ["COc1ccc(N(C)c2nc(C)nc3ccn(C)c23)cc1 [2•HCl]", "pIC50", 7.60],
  ["COc1ccc(N(C)c2nc(C)nc3cc[nH]c23)cc1 [1•HCl]", "pIC50", 7.53]
]}

Field: next compound
Q: Identify measured pIC50 associated with CCCn1ccc2nc(C)nc(N(C)c3ccc(OC)cc3)c21.Cl [3•HCl]
Ans: 7.05
